As shown below, each of these molecules has a reported Percent Effect value.
system: Wolbachia pipientis; test: Anti-Wolbachia Cell-Based Screen; format: functional; parameters: scale not given: in the data most compounds retested in dose-response had high values; settings: 5 µM
In all, about 48,000 compounds went through this assay and about 13,000 (27%) showed an effect of 50% or more. This is one part of the list.

Would you please look over these solved cases?
molecule	Percent Effect
Cc1nc(CN2C[C@@H]3CN(C(=O)Cc4ccccn4)C[C@@H]3C2)cs1.O=C(O)C(F)(F)F.O=C(O)C(F)(F)F	107.4%
Cc1cccc(Nc2ccc(C3CCCCN3)cn2)n1 (stereo not given)	86.37%
CC(C)Oc1ccc(C(O)CNCc2ccccc2C(F)(F)F)cc1 (stereo not given)	-32.82%
O=C(c1ccc2c(c1)COC2)N1CCC(Nc2ccccc2)CC1	5.047%
COc1cccc2c(=O)n(C3CCNCC3)cnc12	0.1861%
CCC(CC)C(=O)N1CCOC2(CNC2)C1	-30.77%
Nc1cnc(-c2cccc3c2CCNC3)cn1	7.253%
Cc1oncc1C(=O)N1CC[C@H]2[C@H](C[C@@H](CN3CCCC3)N2C)C1.O=C(O)C(F)(F)F.O=C(O)C(F)(F)F	90.36%

Exercise: What value of measured Percent Effect is listed for `O=C(O)C(F)(F)F.O=C(O)C(F)(F)F.c1cncc(CO[C@H]2CN(Cc3ccco3)[C@@H]3COC[C@H]23)c1` ?
Solution: 97.44%

Exercise: What value of measured Percent Effect is listed for `CC[C@H]1CN2CC[C@H]1C[C@@H]2CNC(=O)NC1CCCCC1` ?
Solution: -4.604%

Exercise: What value of measured Percent Effect is listed for `O=C(O)C(F)(F)F.c1ccc(NC[C@@H]2CCC[C@@H]3CN(Cc4nccs4)C[C@@H]32)nc1` ?
Solution: -15.69%

Exercise: What value of measured Percent Effect is listed for `COc1nc(N2CCNCC2)ncc1Br` ?
Solution: -8.9%

Exercise: What value of measured Percent Effect is listed for `CCc1ccc(CN2CCN(C)c3ncccc3C2)o1.O=C(O)C(F)(F)F.O=C(O)C(F)(F)F` ?
Solution: 45.7%

Exercise: What value of measured Percent Effect is listed for `CN1CCN(S(=O)(=O)c2cccc(F)c2)Cc2cccnc21.O=C(O)C(F)(F)F` ?
Solution: 100.3%

Exercise: What value of measured Percent Effect is listed for `O=C1CO[C@@H]2CNC[C@H]2N1CC1CC1` ?
Solution: -15.76%

###

test system: Wolbachia pipientis; assay: Anti-Wolbachia Cell-Based Screen; format: functional; set-up: scale not given: in the data most compounds retested in dose-response had high values; settings: 5 µM
The campaign covered roughly 48,000 compounds. About 13,000 (27%) showed an effect of 50% or more. The list shows a part of the results.
measured_quantity: Percent Effect (%)
Return type: number; implicit unit %.

Would you please look over these solved cases?
compound	Percent Effect, %
Cc1noc([C@]23COC[C@H]2CN(C(C)C)C3)n1.O=C(O)C(F)(F)F	-9.217
C/C(=C\c1ccco1)CN(C)C(C)Cc1cc(C)ccn1 (stereo not given)	32.02
COc1cccc(CC(C)NC(=O)NCCc2cccnc2)c1 (stereo not given)	-9.147
Cc1csc(CN2CCC[C@]3(C[C@H](Oc4ccccn4)CO3)C2)n1.O=C(O)C(F)(F)F.O=C(O)C(F)(F)F	-0.2968

In the following, a different compound is considered.
Exercise: What value of measured Percent Effect is listed for Cl.O=C(NCC(F)(F)F)C1=NOC2(CCCNC2)C1 (stereo not given) ?
Solution: 8.664

###

test system: Wolbachia pipientis; assay: Anti-Wolbachia Cell-Based Screen; assay type: functional; parameters: scale not given: in the data most compounds retested in dose-response had high values; details: 5 µM
Hit rate of the full screen: of about 48,000 compounds, about 13,000 (27%) showed an effect of 50% or more. Some of the results follow.
As shown below, each of these compounds has a reported Percent Effect value.
Return type: number; implicit unit %.

Would you please look over these solved cases?
compound	target_desc	units_of_measure	Percent Effect
Cc1ncsc1CN1C[C@@H](OCc2ccncc2)[C@H]2OCCC[C@H]21.O=C(O)C(F)(F)F.O=C(O)C(F)(F)F	Wolbachia pipientis	%	-3.825
O=C(NCCc1ccncc1)[C@H]1CC[C@@H]2[C@@H](CCN2CC2CC2)O1.O=C(O)C(F)(F)F.O=C(O)C(F)(F)F	Wolbachia pipientis	%	1.654
CC(C)CNC(=O)N1C[C@@H]2CCCN[C@@H]2C1	Wolbachia pipientis	%	-10.44
O=C(O)C(F)(F)F.O=C(O)C(F)(F)F.O=C1N(c2cccnc2)CCC12CCCN(Cc1ccoc1)C2 (centres undefined)	Wolbachia pipientis	%	-1.124
O=C(O)C(F)(F)F.O=C(O)C(F)(F)F.O=C([C@H]1CN(Cc2ccncc2)C[C@H]2OCC[C@@H]12)N1CCCCO1	Wolbachia pipientis	%	11.08
O=C1Nc2ccccc2CC12CCCN2Cc1cccnc1 (centres undefined)	Wolbachia pipientis	%	106.6
Cc1cc(CN2CCN3C[C@H](c4ccccc4)[C@@H](CO)[C@H]3C2)on1	Wolbachia pipientis	%	124.7
COc1ccc(C(=O)C2CCCN(CCCn3cccn3)C2)c(OC)c1 (centres undefined)	Wolbachia pipientis	%	-1.04

Exercise: What value of measured Percent Effect is listed for `OC[C@@H]1[C@H]2CN(c3ccccn3)CCN2C[C@H]1c1ccccc1` ?
Solution: 110.4

Exercise: What value of measured Percent Effect is listed for `CC(C)(C)CC(=O)N1C[C@@H]2C[C@H]1CN2.Cl` ?
Solution: -16.89

Exercise: What value of measured Percent Effect is listed for Cc1cccnc1CN1CCC2(CC(Nc3ccncn3)C2)C1 (centres undefined) ?
Solution: 130.7

Exercise: What value of measured Percent Effect is listed for C/C(=C\c1ccco1)CN(C)C(C)Cc1ccccn1 (centres undefined) ?
Solution: -10.17

Exercise: What value of measured Percent Effect is listed for `CCOCCN1CCO[C@H]2[C@H](OCc3ccccn3)CC[C@@H]21.O=C(O)C(F)(F)F.O=C(O)C(F)(F)F` ?
Solution: 26.08

Exercise: What value of measured Percent Effect is listed for `COC(=O)CNC(=O)c1cn(Cc2ccccc2F)nn1` ?
Solution: 4.551

###

system: Wolbachia pipientis; test: Anti-Wolbachia Cell-Based Screen; format: functional; set-up: scale not given: in the data most compounds retested in dose-response had high values; conditions: 5 µM
The campaign covered roughly 48,000 compounds. About 13,000 (27%) showed an effect of 50% or more. The list shows a part of the results.
As shown below, each of these molecules has a reported Percent Effect value.
Return type: number; implicit unit %.

molecule	Percent Effect [%]
Cl.O=C1NC2(CCNCC2)CC1c1ccccc1 (centres undefined)	-38.6
Cc1cc(C)c(CNc2nc3ccccc3cc2CO)c(=O)[nH]1	34.93
O=C(O)C(F)(F)F.O=C(O)[C@]12CCCN(C3CCOC3)C[C@H]1CN(c1ncccn1)C2 (some centres undefined)	103.8
Cc1nc(O)cc(CN2CC=C(c3cnn(-c4ccccc4)c3)CC2)n1	3.563
O=C(O)C(F)(F)F.O=C(O)C(F)(F)F.c1cncc(OC[C@]23COC[C@H]2CN(Cc2cccs2)C3)c1	-9.167

Exercise: What value of measured Percent Effect is listed for `O=C1[C@@H]2CCN(C3CCC3)C[C@@H]2OCCN1Cc1ccncc1` ?
Solution: -0.008003

Exercise: What value of measured Percent Effect is listed for `O=C(O)C(F)(F)F.O=C(O)C(F)(F)F.c1ccc(OC[C@]23COC[C@H]2CN(Cc2ccoc2)C3)nc1` ?
Solution: -16.38

Exercise: What value of measured Percent Effect is listed for `O=C(O)C(F)(F)F.O=C(O)C(F)(F)F.c1ccc(OC[C@]23COC[C@H]2CN(C2CCOCC2)C3)nc1` ?
Solution: 115.9

Exercise: What value of measured Percent Effect is listed for CN1CC2(CCNCC2)CC1C(=O)NCCCNc1cccnc1 (centres undefined) ?
Solution: 9.44

###

As shown below, each of these compounds has a reported Percent Effect value.
test system: Wolbachia pipientis; assay: Anti-Wolbachia Cell-Based Screen; format: functional; parameters: scale not given: in the data most compounds retested in dose-response had high values; conditions: 5 µM
The campaign covered roughly 48,000 compounds. About 13,000 (27%) showed an effect of 50% or more. Some of the results follow.
Return type: number; implicit unit %.

compound	target_desc	observed_measurement
Cc1ncc2c(c1CNC(=O)C1(C)CCCO1)CCNC2 (centres undefined)	Wolbachia pipientis	2.031

Exercise: What value of measured Percent Effect is listed for CC(C)NC(=O)C1CCC2(CCNCC2)C1 (centres undefined) ?
Solution: -35.43

Exercise: What value of measured Percent Effect is listed for `Cc1nc(O)cc(CN2CC=C(c3cnn(C(C)(C)C)c3)CC2)n1` ?
Solution: 6.105

Exercise: What value of measured Percent Effect is listed for `COc1cc(C2(C(=O)NCCn3ccnc3)CCCC2)ccc1C` ?
Solution: 17.74
